// data source = patent US20220162191A1

Recorded pEC50, one value per entry.
# system_under_test: human IL-17AA (Homo sapiens)
# Sequence (Q16552 24-155): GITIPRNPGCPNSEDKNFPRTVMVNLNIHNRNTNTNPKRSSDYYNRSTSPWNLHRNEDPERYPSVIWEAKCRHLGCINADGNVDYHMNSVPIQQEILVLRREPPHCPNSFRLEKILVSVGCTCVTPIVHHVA
# Sequence (Q16552 24-155): as above
# method_notes: IL-8 release assay in human epithelial keratinocytes adult (HEKa)
# assay_setup: 3 ng/ml human IL-17AA + 10 ng/ml human TNFalpha, 68-72 h, IL-8 by HTRF, read-out: Rel EC50 L-8 release assay
# Method: Example: IL-8 release assay in human epithelial keratinocytes adult (HEKa) Keratinocytes were seeded at 3500 cells/well in 384-well ViewPlates (Perkin Elmer) in Epilife medium (Thermo Fisher) containing human keratinocyte growth supplement (HKGS) without hydrocortisone and incubated in a humid incubator at 37° C., 5% CO2, overnight. […] for test compounds, by the use of acoustic pipetting. […] Cytotoxicity was measured in the cell-containing […]
pEC50: −log10 of the molar value.

{"molecule": "Cn1cncc1-c1ccc(NC(=O)C(Cc2cc(-c3ccnc(N4CC[C@H]4CO)c3)ccc2Cl)NC(=O)c2ccnn2C)cc1 (stereo partly drawn)", "system_under_test": "human IL-17AA (Homo sapiens)", "pEC50": "6.00 to 7.00"}
{"molecule": "Cc1n[nH]c(C)c1-c1ccc(NC(=O)[C@@H](NC(=O)c2ccnn2C)[C@@H]2CCCc3ccc(-c4ccc(=O)n(C(C)C)c4)cc32)cc1O [Example 46]", "system_under_test": "human IL-17AA (Homo sapiens)", "pEC50": "> 7.00"}
{"molecule": "Cc1n[nH]c(C)c1-c1ccc(NC(=O)[C@H](Cc2cc(-c3ccnn3C3CCC3)ccc2Cl)NC(=O)C2(F)CC2)cc1", "system_under_test": "human IL-17AA (Homo sapiens)", "pEC50": "6.00 to 7.00"}
{"molecule": "Cc1[nH]nnc1-c1ccc(NC(=O)C(Cc2cc(-c3ccc(=O)n(C(C)C)c3)ccc2Cl)NC(=O)c2ccnn2C)cc1 (stereo not drawn)", "system_under_test": "human IL-17AA (Homo sapiens)", "pEC50": "6.00 to 7.00"}
{"molecule": "Cc1n[nH]c(C)c1-c1ccc(NC(=O)[C@@H](NC(=O)C2(F)CC2)[C@@H]2CCc3ccc(-c4cc(N5CC(F)(F)C5)ncn4)cc32)cc1", "system_under_test": "human IL-17AA (Homo sapiens)", "pEC50": "6.00 to 7.00"}
{"molecule": "Cn1cncc1-c1ccc(NC(=O)[C@H](Cc2cc(-c3cccc([C@H]4COCCN4)c3)ccc2Cl)NC(=O)c2ccnn2C)cc1", "system_under_test": "human IL-17AA (Homo sapiens)", "pEC50": "6.00 to 7.00"}
{"molecule": "Cc1nocc1C(=O)NC(Cc1cc(-c2ccnc(C(=O)N(C)C3CC3)c2)ccc1Cl)C(=O)Nc1ccc(-c2nncn2C)cc1 (stereo not drawn)", "system_under_test": "human IL-17AA (Homo sapiens)", "pEC50": "< 6.00"}
{"molecule": "CC(C)n1cc(-c2ccc(Cl)c(CC(NC(=O)OCC3(C)CC3)C(=O)Nc3ccc(-c4nncn4C)cc3)c2)ccc1=O (stereo not drawn)", "system_under_test": "human IL-17AA (Homo sapiens)", "pEC50": "< 6.00"}
{"molecule": "Cc1ncn(C)c1-c1ccc(NC(=O)[C@@H](NC(=O)OC2CC2)[C@@H]2CCCc3ccc(-c4ccnc(N5CCN(C)CC5)c4)cc32)cc1", "system_under_test": "human IL-17AA (Homo sapiens)", "pEC50": "6.00 to 7.00"}
{"molecule": "Cc1n[nH]cc1-c1ccc(NC(=O)C(NC(=O)OC2CC2)C(c2ccccc2)c2cccc(-c3ccc(=O)n(C(C)C)c3)c2)cc1 (single isomer, unassigned; diastereomer 1) [Example 242]", "system_under_test": "human IL-17AA (Homo sapiens)", "pEC50": "< 6.00"}
{"molecule": "Cc1n[nH]c(C)c1-c1ccc(NC(=O)[C@@H](NC(=O)C2(F)CC2)[C@@H]2CCc3ccc(-c4ccnc(N5C[C@H]6C[C@@H]5CO6)c4)cc32)cc1", "system_under_test": "human IL-17AA (Homo sapiens)", "pEC50": "> 7.00"}
{"molecule": "C[C@H]1CN(c2cc(-c3ccc(Cl)c(C[C@H](NC(=O)c4ccnn4C)C(=O)Nc4ccc(-c5cncn5C)cc4)c3)ccn2)CCN1", "system_under_test": "human IL-17AA (Homo sapiens)", "pEC50": "6.00 to 7.00"}
